Organism: Homo sapiens
Test: IC50 ratio between PKCbeta II and GSK-3
Give measured Selectivity for each item. Keep answers brief.
Number, no unit, nothing else.

Query block: Reported Selectivity for O=C1NC(=O)C(c2cnc3ccncn23)=C1c1cn2c3c(cccc13)CNCC2 : what is it?
Result block: 3

Query block: Reported Selectivity for O=C1NC(=O)C(c2cccc3ccoc23)=C1c1cn2c3c(cccc13)CNCC2 : what is it?
Result block: 183

Query block: Reported Selectivity for O=C1NC(=O)C(c2cnc3ccccn23)=C1c1cn2c3c(cccc13)CN(C(=O)N1CCCCC1)CC2 : what is it?
Result block: 281

Query block: Reported Selectivity for O=C1NC(=O)C(c2cnc3ncccn23)=C1c1cn2c3c(cccc13)CNCC2 : what is it?
Result block: 112

Query block: Reported Selectivity for O=C1NC(=O)C(c2cnc3cccnn23)=C1c1cn2c3c(cccc13)CNCC2 : what is it?
Result block: 133

Query block: Reported Selectivity for Cn1ccc2c(C3=C(c4cn5c6c(cccc46)CNCC5)C(=O)NC3=O)cccc21 : what is it?
Result block: 28

Query block: Reported Selectivity for O=C1NC(=O)C(c2cn3c4c(cccc24)CNCC3)=C1c1cccc2c1OCO2 : what is it?
Result block: 103
